Data origin: PubChem BioAssay (Tox21)

- EXPERIMENTAL_PROTOCOL: qHTS assay to identify small molecule antagonists of the estrogen related receptor signaling pathway with the pleiotropic PPARgamma coactivator (PGC) from Tox21 10K library - cell viability counter screen (AID 1224840); note: nearly all actives have a fitted effect of over 40% in size
- EXPERIMENTAL_SETUP: PGC/ERR reporter cells viability, CellTiter-Fluor, 17.5 h; series mostly up to 92.4 µM
Records with an inconclusive call do not appear. The source made the active and inactive calls. Calls come from the whole dose curve; as a rule, active = well fitted cell-killing curve with a large enough effect in the repeat runs (not every such curve was filed as active); inconclusive = weak or mixed curves, or effect the other way; inactive = no such curve, though single readings can be large or run the other way.
Give one outcome, nothing more. List: true = active, false = inactive

Reference set (5 entries):
[
  {
    "COMPOUND": "O=C(O)CCCCCCCCCCCBr",
    "LABEL": "false"
  },
  {
    "COMPOUND": "O=C1Cc2cc(Cl)ccc2N1",
    "LABEL": "false"
  },
  {
    "COMPOUND": "C=CC(=O)[O-].C=CC(=O)[O-].[Zn+2]",
    "LABEL": "false"
  },
  {
    "COMPOUND": "CCC1NC(=O)c2cc(S(N)(=O)=O)c(Cl)cc2N1 (centres undefined)",
    "LABEL": "false"
  },
  {
    "COMPOUND": "CN(C)CCN1C(=O)c2ccccc2N(C)c2ccccc21",
    "LABEL": "false"
  }
]

Prompt: How did this test come out for CCCCCCCC/C=C\CCCCCCCCO ?
Response: false

Prompt: How did this test come out for O=c1[nH]c2ccc(Cl)cc2o1 ?
Response: false

Prompt: How did this test come out for CO/N=C(/C(=O)N[C@@H]1C(=O)N2C(C(=O)O)=C(COC(N)=O)CS[C@H]12)c1ccco1 ?
Response: false

Prompt: How did this test come out for OCCOCC#CCOCCO ?
Response: false

----------
- EXPERIMENTAL_PROTOCOL: Caspase-3/7 induction in CHO-K1 cells by small molecules, qHTS cell viability counter screen (AID 1346979); note: nearly all actives have a fitted effect of over 35% in size
- EXPERIMENTAL_SETUP: CellTiter-Fluor fluorescence, 17 h; series mostly up to 92.4 µM
- Source text: National Center for Advancing Translational Sciences [NCATS] NIH Chemical Genomics Center [NCGC] U.S. Environmental Protection Agency [EPA] National Institutes of Environmental Health Sciences [NIEHS] National Toxicology Program [NTP] U.S. Food and Drug Administration [FDA] Apoptosis is a process of programmed cell death and plays a central role in the development of multicellular organisms. […]
Inconclusive results are not listed. Activity calls are given as the source filed them. Calls come from the whole dose curve; as a rule, active = well fitted cell-killing curve with a large enough effect in the repeat runs; inconclusive = weak or mixed curves, or effect the other way; inactive = no such curve, though single readings can be large or run the other way.
Give one outcome, nothing more. List: t for active, f for inactive

Reference set (3 entries):
[
  {
    "COMPOUND": "Cc1ccco1",
    "LABEL": "f"
  },
  {
    "COMPOUND": "FC(F)(F)c1ccccc1Cl",
    "LABEL": "f"
  },
  {
    "COMPOUND": "CC(C)C=O",
    "LABEL": "f"
  }
]

Prompt: How did this test come out for CC(CCC(=O)O)C(=O)O (stereo not given) ?
Response: f

Prompt: How did this test come out for CC(CN(C)C)C(C)(O)Cc1ccc(Cl)cc1 (stereo not given) ?
Response: f

Prompt: How did this test come out for CCCCCC[C@@H](O)C/C=C\CCCCCCCC(=O)O ?
Response: f

Prompt: How did this test come out for CN1C(=O)N(c2ccccc2Br)Cc2cnc(Nc3ccc4c(c3)OCC(CO)O4)nc21 (stereo not given) ?
Response: t

Prompt: How did this test come out for C=C(C)[C@@H]1CCC2=CCC[C@@H](C)[C@]2(C)C1 ?
Response: f

Prompt: How did this test come out for C=CCc1ccccc1OCC(O)CNC(C)C (stereo not given) ?
Response: f
